- experimental target: Cruzipain (Trypanosoma cruzi, UniProt P25779)
- Sequence (P25779 whole entry): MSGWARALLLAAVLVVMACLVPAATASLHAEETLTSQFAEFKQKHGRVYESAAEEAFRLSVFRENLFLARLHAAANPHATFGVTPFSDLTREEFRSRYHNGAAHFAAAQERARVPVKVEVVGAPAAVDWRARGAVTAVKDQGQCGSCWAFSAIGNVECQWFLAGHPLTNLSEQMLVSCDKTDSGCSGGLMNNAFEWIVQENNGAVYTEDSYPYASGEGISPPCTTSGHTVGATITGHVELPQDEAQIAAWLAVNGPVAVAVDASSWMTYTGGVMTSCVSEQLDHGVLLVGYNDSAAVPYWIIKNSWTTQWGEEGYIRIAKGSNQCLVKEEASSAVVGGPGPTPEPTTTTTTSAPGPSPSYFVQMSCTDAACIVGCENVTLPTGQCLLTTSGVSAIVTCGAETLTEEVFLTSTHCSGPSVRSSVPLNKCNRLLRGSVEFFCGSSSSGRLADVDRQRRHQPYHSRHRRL
- measurement notes: Irreversible inhibition of Trypanosoma cruzi cruzipain
reported endpoint: IC50

Asked: IC50 for CC(C)C[C@H](NC(=O)[C@@H]1O[C@H]1C(=O)O)C(=O)NCCCCN=C(N)N ?
Given back: 3 µM

====

What selectivity ratio was measured for each of the following?
- measurement notes: Selectivity index, ratio of CC50 for mouse cardiomyocyte infected with intracellular amastigote stage of Trypanosoma cruzi Y strain to IC50 for amastigote stage of Trypanosoma cruzi Y strain
- Assay type: toxicity, cell-based
- condition info: read-out: Ratio CC50/IC50
// no unit string in output, number only

Asked: Reported selectivity ratio for Nc1c(C2=NCCN2)cnn1-c1ccc(Cl)c(Cl)c1 : what is it?
Given back: 32.4

Asked: I have this compound here, Nc1c(C2=NCCN2)cnn1-c1cc(Cl)cc(Cl)c1 , and I need its recorded selectivity ratio.
Given back: 30.3

====

- System: Trypanosoma cruzi
- measurement notes: Trypanocidal activity against intracellular amastigote stage of luciferase expressing Trypanosoma cruzi Dm28c infected in Vero cells assessed as reduction in parasite viability after 72 hrs in presence of luciferin by luciferase luminescence analysis
For each entry below, report its pIC50 value.
Formally, pIC50 is defined as -log10 of the concentration c, with c in mol/L.

Asked: Return reported pIC50; argument: Nc1c(C2=NCCN2)cnn1-c1ccccc1
Given back: 4.07

Asked: Quick one: pIC50 for O=C(Cn1ccnc1[N+](=O)[O-])NCc1ccccc1 [BENZNIDAZOLE] ?
Given back: 5.72

Asked: What does the record list as pIC50 for Nc1c(C2=NCCN2)cnn1-c1ccc(Cl)c(Cl)c1 ?
Given back: 4.87

Asked: What pIC50 value was documented for this compound, COc1ccc(-n2ncc(C3=NCCN3)c2N)cc1 ?
Given back: 4.20

Asked: What value of pIC50 has been recorded for this entry: Nc1c(C2=NCCN2)cnn1-c1ccc(Br)cc1
Given back: 4.07

Asked: # input compound: Nc1c(C2=NCCN2)cnn1-c1cccc(Br)c1 ; wanted: its pIC50
Given back: 4.17

Asked: Which value of pIC50 has been reported for Nc1c(C2=NCCN2)cnn1-c1cccc(Cl)c1 in the records?
Given back: 4.69

Asked: Which pIC50 is listed for Nc1c(C2=NCCN2)cnn1-c1cc(Cl)cc(Cl)c1 ?
Given back: 4.78

====

- Tested on: Trypanosoma cruzi
- measurement notes: Trypanocidal activity against luciferase expressing Trypanosoma cruzi Dm28c trypomastigotes isolated from infected Vero cells assessed as reduction in parasite viability after 24 hrs by luciferase-luminescence assay
- Type: functional, organism-based
pIC50: −log10 of the molar value.
Provide the reported pIC50 of each item.

Asked: For Trypanosoma cruzi, provide pIC50 of Nc1c(C2=NCCCN2)cnn1-c1ccc(Br)cc1 please.
Given back: < 4.00

Asked: API: value(readout= pIC50, system= Trypanosoma cruzi, query= Nc1c(C2=NCCCN2)cnn1-c1ccccc1 )
Given back: < 4.00

Asked: Could you share what pIC50 was measured for Nc1c(C2=NCCN2)cnn1-c1cccc(Br)c1 , tested on Trypanosoma cruzi?
Given back: < 4.00

Asked: Lab note: need pIC50 with Trypanosoma cruzi for entry Nc1c(C2=NCCN2)cnn1-c1ccc(Br)cc1 , please look it up.
Given back: < 4.00

Asked: Which pIC50 is reported with Trypanosoma cruzi for this entry: Nc1c(C2=NCCN2)cnn1-c1cc(Cl)cc(Cl)c1 ?
Given back: 5.02

Asked: Could you share what pIC50 was measured for Nc1c(C2=NCCCN2)cnn1-c1ccc(Cl)cc1 , tested on Trypanosoma cruzi?
Given back: < 4.00

Asked: Find pIC50 (Trypanosoma cruzi) for the entry O=C(Cn1ccnc1[N+](=O)[O-])NCc1ccccc1 [BENZNIDAZOLE]
Given back: 4.72

Asked: For Trypanosoma cruzi, provide pIC50 of Nc1c(C2=NCCN2)cnn1-c1ccccc1 please.
Given back: < 4.00

Asked: Find the measured pIC50: item Nc1c(C2=NCCN2)cnn1-c1ccc(Cl)c(Cl)c1 , target or system Trypanosoma cruzi.
Given back: 4.98

Asked: Request body: readout pIC50, system Trypanosoma cruzi, query Nc1c(C2=NCCCN2)cnn1-c1cccc(Br)c1 . Return the value.
Given back: < 4.00

Asked: Value wanted: pIC50 (Trypanosoma cruzi) of entry Nc1c(C2=NCCCN2)cnn1-c1ccc(F)cc1
Given back: < 4.00

Asked: Give pIC50 (Trypanosoma cruzi) of the following compound: Nc1c(C2=NCCCN2)cnn1-c1cc(Cl)cc(Cl)c1
Given back: < 4.00

Reference source for all entries: ChEMBL document CHEMBL4359893
